assay-system: Cytochrome P450 2C9 (Homo sapiens)
run-description: Cytochrome P450 family 2 subfamily C member 9 (CYP2C9) small molecule antagonists: luciferase biochemical (cell-free) qHTS assay (AID 1645842); further: nearly all actives have a fitted effect of over 55% in size; further: potency means the concentration at half of the fitted maximal effect
test-settings: P450-Glo CYP2C9 enzyme assay, luciferin luminescence; series mostly up to 57.4 µM
Results filed as inconclusive are left out. Activity calls are given as the source filed them. The call rests on the fitted dose curve; in most records, active means well fitted inhibition curve with a large enough effect in the repeat runs; inconclusive means weak or mixed curves; inactive means no such curve, though single readings can be large or run the other way.
property-measured: Potency

The examples below pair each entry with its known result.
Prompt line: Specify reported Potency for the compound shown: CCCCC(C)(O)C/C=C/[C@H]1[C@H](O)CC(=O)[C@@H]1CCCCCCC(=O)OC (some centres not stated)
Response line: 2.68 µM (active)

Prompt line: Specify reported Potency for the compound shown: C=C1CC[C@@H]2[C@](C)(CO)[C@H](O)CC[C@@]2(C)[C@@H]1C/C=C1/C(=O)OC[C@H]1O
Response line: inactive

Prompt line: Specify reported Potency for the compound shown: CCNC(=O)[C@H]1O[C@H](n2cnc3c(NCC(c4ccccc4)c4ccccc4)nc(C(=O)NCCNC(=O)NC4CCN(c5ccccn5)CC4)nc32)[C@H](O)[C@@H]1O
Response line: 3.79 µM (active)

Prompt line: Specify reported Potency for the compound shown: C[C@@H]1[C@H](O)[C@@H](C)/C=C/C=C\C=C\C=C\C=C\C=C\C=C\[C@H](O[C@@H]2O[C@H](C)[C@@H](O)[C@H](N)[C@@H]2O)C[C@@H]2O[C@](O)(C[C@@H](O)C[C@@H](O)[C@H](O)CC[C@@H](O)C[C@@H](O)CC(=O)O[C@H]1C)C[C@H](O)[C@H]2C(=O)O (stereo in doubt)
Response line: inactive

Prompt line: Specify reported Potency for the compound shown: O=C(NCc1ccc(OC(F)(F)F)cc1)C1c2ccccc2C(=O)N1C1CCOCC1 (configuration not stated)
Response line: 12 µM (active)

Prompt line: Specify reported Potency for the compound shown: COCCCNCC1COc2ccccc2O1 (configuration not stated)
Response line: inactive

As a next step, examine the compound that follows.
Prompt line: Specify reported Potency for the compound shown: NS(=O)(=O)OC[C@@H]1C[C@@H](n2ccc3c(N[C@H]4CCc5ccccc54)ncnc32)C[C@@H]1O
Response line: 21.3 µM (active)

* * *

Test system: Hek293T
run-description: Primary qHTS to identify gynecologic anti-cancer compounds using libraries of approved drugs and bioactive compounds (AID 1345084); further: on the % scale 0 is the no-effect control and ±100 the full control effect; nearly all actives have a fitted effect of over 55% in size
test-settings: Gynecologic cancer cell panel viability, ATPlite luminescence, 48 h, control line for the selectivity index; series mostly up to 57.5 µM
Records with an inconclusive call do not appear. The source made the active and inactive calls. Calls follow the shape of the dose curve; as a rule, active = well fitted cell-killing curve with a large enough effect; inconclusive = small, poorly fitted or top-dose-only effect, or effect the other way; inactive = flat fitted curve, though single readings scatter.
property-measured: activity change, negative = cytotoxicity

Prompt line: Specify reported activity change, negative = cytotoxicity for the compound shown: CC(=O)O[C@@H]1[C@H](O[C@@H]2OC[C@](O)(CO)[C@H]2O)[C@@H](O[C@@H]2O[C@@H](C)[C@H](O)[C@@H](O)[C@H]2O)[C@H](OC(=O)[C@]23CCC(C)(C)C[C@H]2C2=CCC4[C@@]5(C)C[C@H](O)[C@H](O[C@@H]6O[C@H](C(=O)O)[C@@H](O)[C@H](O)[C@H]6O)[C@@](C)(C(=O)O)C5CC[C@@]4(C)[C@]2(C)CC3)O[C@@H]1C (some centres not stated)
Response line: 9.21% [at 11.6 µM] (inactive)

* * *

assay-system: Voltage-gated inwardly rectifying potassium channel KCNH2 (Homo sapiens) (UniProt Q12809)
Sequence (Q12809 whole entry, looked up): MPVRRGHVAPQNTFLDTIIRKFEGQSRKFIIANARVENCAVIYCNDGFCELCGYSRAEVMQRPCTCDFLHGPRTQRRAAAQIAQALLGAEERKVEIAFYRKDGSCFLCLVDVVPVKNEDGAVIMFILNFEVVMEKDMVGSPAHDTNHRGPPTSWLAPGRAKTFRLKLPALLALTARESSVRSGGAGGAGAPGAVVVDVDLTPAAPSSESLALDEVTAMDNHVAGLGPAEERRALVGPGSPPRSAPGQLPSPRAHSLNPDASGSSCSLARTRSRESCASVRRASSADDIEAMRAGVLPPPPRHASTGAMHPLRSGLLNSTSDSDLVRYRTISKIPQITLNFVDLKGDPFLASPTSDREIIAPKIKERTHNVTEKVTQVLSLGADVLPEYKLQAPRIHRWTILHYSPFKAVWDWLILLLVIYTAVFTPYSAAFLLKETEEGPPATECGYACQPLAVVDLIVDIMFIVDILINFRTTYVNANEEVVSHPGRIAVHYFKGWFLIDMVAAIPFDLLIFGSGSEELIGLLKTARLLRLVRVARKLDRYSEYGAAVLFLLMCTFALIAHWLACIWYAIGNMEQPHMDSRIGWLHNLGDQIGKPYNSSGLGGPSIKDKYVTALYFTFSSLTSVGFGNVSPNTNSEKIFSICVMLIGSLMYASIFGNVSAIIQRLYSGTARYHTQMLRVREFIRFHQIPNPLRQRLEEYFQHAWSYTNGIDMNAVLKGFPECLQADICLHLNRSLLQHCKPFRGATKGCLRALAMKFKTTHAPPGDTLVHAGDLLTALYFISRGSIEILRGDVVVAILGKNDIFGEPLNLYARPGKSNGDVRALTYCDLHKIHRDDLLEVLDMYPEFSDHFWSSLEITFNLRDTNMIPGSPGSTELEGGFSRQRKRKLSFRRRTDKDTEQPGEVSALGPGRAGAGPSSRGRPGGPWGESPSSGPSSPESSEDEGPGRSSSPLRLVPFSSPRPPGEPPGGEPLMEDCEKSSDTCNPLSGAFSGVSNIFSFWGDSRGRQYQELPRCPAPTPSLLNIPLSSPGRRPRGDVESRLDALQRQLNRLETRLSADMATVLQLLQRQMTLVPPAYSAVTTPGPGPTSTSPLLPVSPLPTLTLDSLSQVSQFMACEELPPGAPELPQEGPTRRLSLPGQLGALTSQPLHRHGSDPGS
run-description: qHTS Assay for Small Molecule Inhibitors of the Human hERG Channel Activity (AID 588834);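 further: lower thallium flux fluorescence means stronger hERG block; nearly all actives have a fitted effect of over 50% in size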
test-settings: U2OS BacMam hERG, FluxOR thallium flux fluorescence; series mostly up to 46.1 µM
Results filed as inconclusive are left out. The source made the active and inactive calls. Calls come from the whole dose curve; as a rule, active = well fitted inhibition curve with a large enough effect; inconclusive = small, poorly fitted or top-dose-only effect; inactive = flat fitted curve, though single readings scatter.
# valid calls are t (active), f (inactive); nothing else

Prompt line: Answer briefly: the call reported for CC(=O)Oc1c(C)cc(OCC(O)CNC(C)C)c(C)c1C (configuration not stated) in this assay.
Response line: f

Prompt line: Answer briefly: the call reported for CC(=O)OCC(=O)[C@@]1(O)CC[C@H]2[C@@H]3C[C@H](C)C4=CC(=O)C=C[C@]4(C)[C@H]3[C@@H](O)C[C@@]21C in this assay.
Response line: f

Prompt line: Answer briefly: the call reported for CCNC(=O)[C@@H]1CCCN1C(=O)[C@H](CCCN=C(N)N)NC(=O)[C@H](CC(C)C)NC(=O)[C@@H](Cc1c[nH]c2ccccc12)NC(=O)[C@H](Cc1ccc(O)cc1)NC(=O)[C@H](CO)NC(=O)[C@H](Cc1c[nH]c2ccccc12)NC(=O)[C@H](Cc1cnc[nH]1)NC(=O)[C@@H]1CCC(=O)N1 in this assay.
Response line: t

Prompt line: Answer briefly: the call reported for O=C(Nc1cccc(C(F)(F)F)c1)c1cc(Br)cc(Br)c1O in this assay.
Response line: f

Prompt line: Answer briefly: the call reported for NCc1ccccc1CC(=O)N[C@@H]1C(=O)N2C(C(=O)O)=C(CSc3nnnn3CC(=O)O)CS[C@H]12 in this assay.
Response line: f

Prompt line: Answer briefly: the call reported for C=C1C(=CC=C2CCC[C@@]3(C)[C@@H]2CC[C@H]3[C@H](C)CCCC(C)C)C[C@@H](O)C[C@@H]1O in this assay.
Response line: f

Prompt line: Answer briefly: the call reported for CC(C(=O)O)c1ccc(N2Cc3ccccc3C2=O)cc1 (configuration not stated) in this assay.
Response line: f

* * *

run-description: qHTS Assay for Identifying Gametocytocidal Compounds (AID 743244); further: potency means the concentration at half of the fitted maximal effect
test-settings: P. falciparum 3D7 stage III-V gametocytes, alamarBlue, 72 h
Results filed as inconclusive are left out. Calls of active or inactive are those of the source. The call rests on the fitted dose curve; in most records, active means well fitted curve in the direction sought with a large enough effect; inconclusive means small, poorly fitted or top-dose-only effect, or another doubt; inactive means no such curve, though single readings can be large or run the other way.
Would you mind telling me the reported Potency of each entry?

Prompt line: Specify reported Potency for the compound shown: CC(=O)Oc1c(C)cc(OCC(O)CNC(C)C)c(C)c1C (stereo not drawn)
Response line: 15.8 µM (active)

Prompt line: Specify reported Potency for the compound shown: CCCCCCCCCCCC[n+]1ccc2ccccc2c1
Response line: 1.78 µM (active)

Prompt line: Specify reported Potency for the compound shown: O=C1C(=O)c2ncccc2-c2cccnc21
Response line: 0.148 µM (active)

Prompt line: Specify reported Potency for the compound shown: C[C@@H]1CCC2[C@@H](C)[C@@H](O)O[C@@H]3O[C@@]4(C)CC[C@@H]1[C@@]23OO4 (stereo partly drawn)
Response line: 0.0469 µM (active)

Prompt line: Specify reported Potency for the compound shown: CCOc1cc2ncc(C#N)c(Nc3ccc(OCc4ccccn4)c(Cl)c3)c2cc1NC(=O)/C=C/CN(C)C
Response line: 23.5 µM (active)

Prompt line: Specify reported Potency for the compound shown: CCC1OC(=O)C[C@@H](O)[C@H](C)[C@@H](O[C@@H]2O[C@H](C)C[C@H](N(C)C)[C@H]2O)[C@@H](CC=O)C[C@@H](C)C(=O)/C=C/[C@]2(C)OC2C1C (stereo partly drawn)
Response line: 10 µM (active)

Prompt line: Specify reported Potency for the compound shown: COC(=O)C1=C(C)NC(C)=C(C(=O)OCCCN2CCC(c3ccccc3)(c3ccccc3)CC2)[C@H]1c1cccc([N+](=O)[O-])c1
Response line: 14.8 µM (active)

Prompt line: Specify reported Potency for the compound shown: CC(C)(C)NC(=O)[C@@H]1C[C@@H]2CCCC[C@@H]2CN1C[C@@H](O)[C@H](Cc1ccccc1)NC(=O)[C@H](CC(N)=O)NC(=O)c1ccc2ccccc2n1
Response line: 10 µM (active)

* * *

System: NIH3T3
run-description: Cytotoxic Profiling of Annotated Libraries Using Quantitative High-Throughput Screening (AID 1296008); further: on the % scale 0 is the no-effect control and ±100 the full control effect; nearly all actives have a fitted effect of over 60% in size
test-settings: Five cell lines viability, CellTiter-Glo ATP luminescence, 48-72 h; stronger effect = lower value
Inconclusive results are not listed.
property-measured: max response (%)
Entry rule: numbers only, all in %.

Prompt line: Specify reported max response for the molecule shown: O=c1c2cccnc2n(-c2cccc([N+](=O)[O-])c2)c(=O)n1Cc1ccncc1
Response line: -3.44

Prompt line: Specify reported max response for the molecule shown: C=C1C[C@]23C[C@H]1CC[C@H]2[C@]1(C)CCC[C@@]2(CO)C(=O)O[C@H]([C@H]21)[C@@H]3O
Response line: 2.59

Prompt line: Specify reported max response for the molecule shown: C[C@@H]1CCC2C(C)(C)[C@H](O)CC[C@]2(C)[C@@]12Cc1c(O)cc3c(c1O2)CN(CCO)C3=O (some centres not stated)
Response line: 1.6

Prompt line: Specify reported max response for the molecule shown: CC12CCC3C(C)(C)C(O)CCC3(C)C1Cc1c(oc(C(=O)O)cc1=O)O2 (configuration not stated)
Response line: 1.94

Prompt line: Specify reported max response for the molecule shown: C[C@]1(O)CC[C@@H]2C(C(=O)O)=CO[C@@H](O[C@@H]3O[C@H](COC(=O)c4ccc(O)cc4)[C@@H](O)[C@H](O)[C@H]3O)[C@@H]21
Response line: 2.95

Prompt line: Specify reported max response for the molecule shown: N[C@@H](CC(=O)N1CCn2c(nnc2C(F)(F)F)C1)Cc1[nH]nc2c(F)c(F)ccc12
Response line: -1.97

Prompt line: Specify reported max response for the molecule shown: C=C1[C@H]2[C@H](O[C@@H]3O[C@H](COC(=O)/C=C/c4cc(OC)c(O)c(OC)c4)[C@@H](O)[C@H](O)[C@H]3O)OC=C(C(=O)O)[C@H]2C[C@@H]1O
Response line: 4.54
